# System: Rattus norvegicus
# assay_comment: Hepatotoxicity in Wistar albino rat assessed as change in serum protein level at 0.5 mg/kg, ip measured after 24 hrs
# Format: toxicity, organism-based
# Parameters: dose 0.5 mg/kg, route intraperitoneal
# test_parameters: in vivo
Property: Activity; scope: individual compounds
outcome_measure: Activity (g/L)

1) O=c1oc2ccccc2c(O)c1-c1csc(Nc2cccc([N+](=O)[O-])c2)n1	64.2
2) COC(=O)/C(C(C)=O)=C(/C)c1c(O)c2ccccc2oc1=O	66.4
3) Cc1ccccc1Nc1nc(-c2c(O)c3ccccc3oc2=O)cs1	69.2
4) CCN(CC)c1nc(-c2c(O)c3ccccc3oc2=O)cs1	63.2
5) O=c1oc2ccccc2c(O)c1-c1csc(Nc2ccc(S(=O)(=O)O)cc2)n1	64.9
6) O=C(O)CCCCNc1nc(-c2c(O)c3ccccc3oc2=O)cs1	71.5
7) C/C(=C(\C#N)C(=O)O)c1c(O)c2ccccc2oc1=O	68.9
8) Cc1cccc(Nc2nc(-c3c(O)c4ccccc4oc3=O)cs2)c1	66.2
9) CC(=O)C(C(C)=O)=C(C)c1c(O)c2ccccc2oc1=O	66.5
10) O=c1oc2ccccc2c(O)c1-c1csc(Nc2ccc([N+](=O)[O-])cc2)n1	63
11) CC(=O)c1c(O)c2ccccc2oc1=O	63.8
12) CC(=O)CC(c1ccccc1)c1c(O)c2ccccc2oc1=O (stereo unspecified)	59.4
13) COC(=O)/C=C(/C)c1c(O)c2ccccc2oc1=O	65.2
14) COC(=O)/C(C(=O)O)=C(\C)c1c(O)c2ccccc2oc1=O	62.8
15) CCOC(=O)C(C(=O)OCC)=C(C)c1c(O)c2ccccc2oc1=O	67.2
16) O=c1oc2ccccc2c(O)c1-c1csc(Nc2cccc3ccccc23)n1	72.8

---

# System: Plasma
# assay_comment: Anticoagulant activity in Wistar albino rat plasma assessed as fibrin time
# Type: functional
Define the label as T when Time is strictly less than 30 s and as F in all remaining cases.

1. O=c1oc2ccccc2c(O)c1-c1csc(Nc2cccc3ccccc23)n1	F
2. O=c1oc2ccccc2c(O)c1-c1csc(Nc2ccc(S(=O)(=O)O)cc2)n1	F
3. O=c1oc2ccccc2c(O)c1-c1csc(Nc2ccc([N+](=O)[O-])cc2)n1	F
4. CCOC(=O)C(C(=O)OCC)=C(C)c1c(O)c2ccccc2oc1=O	F
5. COC(=O)/C(C(C)=O)=C(/C)c1c(O)c2ccccc2oc1=O	F
6. CC(=O)C(C(C)=O)=C(C)c1c(O)c2ccccc2oc1=O	T
7. COC(=O)/C(C(=O)O)=C(\C)c1c(O)c2ccccc2oc1=O	T
8. CCN(CC)c1nc(-c2c(O)c3ccccc3oc2=O)cs1	F
9. Cc1cccc(Nc2nc(-c3c(O)c4ccccc4oc3=O)cs2)c1	T
10. O=c1oc2ccccc2c(O)c1-c1csc(Nc2cccc([N+](=O)[O-])c2)n1	F
11. Cc1ccccc1Nc1nc(-c2c(O)c3ccccc3oc2=O)cs1	T

---

# system: VKORC1 (Rattus norvegicus)
# assay_comment: Inhibition of VKORC1
pKi: −log10 of the molar value.
outcome_measure: pKi

1. CCOC(=O)C(C(=O)OCC)=C(C)c1c(O)c2ccccc2oc1=O	4.16
2. O=c1oc2ccccc2c(O)c1-c1csc(Nc2ccc(S(=O)(=O)O)cc2)n1	4.35

---

Property: Activity; scope: individual molecules
# System: Rattus norvegicus
# assay_comment: Hepatotoxicity in Wistar albino rat assessed as change in serum AST level at 0.5 mg/kg, ip measured after 24 hrs
# Format: toxicity, organism-based
# Design: dose 0.5 mg/kg, route intraperitoneal
# test_parameters: in vivo
outcome_measure: Activity (U/L)

1. O=C(O)CCCCNc1nc(-c2c(O)c3ccccc3oc2=O)cs1	231.5
2. O=c1oc2ccccc2c(O)c1-c1csc(Nc2cccc3ccccc23)n1	345.3
3. CC(=O)c1c(O)c2ccccc2oc1=O	160.5
4. O=c1oc2ccccc2c(O)c1-c1csc(Nc2cccc([N+](=O)[O-])c2)n1	294.6

---

# Test system: Rattus norvegicus
# assay_comment: Hepatotoxicity in Wistar albino rat assessed as change in serum gamma-GT level at 0.5 mg/kg, ip measured after 24 hrs
# Assay type: toxicity, organism-based
# Set-up: dose 0.5 mg/kg, route intraperitoneal
# test_parameters: in vivo
Property: Activity; scope: individual compounds
outcome_measure: Activity

1. Cc1cccc(Nc2nc(-c3c(O)c4ccccc4oc3=O)cs2)c1	2.2 U/L
2. CCOC(=O)C(C(=O)OCC)=C(C)c1c(O)c2ccccc2oc1=O	3.1 U/L
3. CC(=O)C(C(C)=O)=C(C)c1c(O)c2ccccc2oc1=O	4.4 U/L
4. O=c1oc2ccccc2c(O)c1-c1csc(Nc2ccc([N+](=O)[O-])cc2)n1	3.8 U/L
5. O=c1oc2ccccc2c(O)c1-c1csc(Nc2ccc(S(=O)(=O)O)cc2)n1	2.4 U/L
6. Cc1ccccc1Nc1nc(-c2c(O)c3ccccc3oc2=O)cs1	3.6 U/L
7. O=c1oc2ccccc2c(O)c1-c1csc(Nc2cccc([N+](=O)[O-])c2)n1	2.8 U/L
8. O=c1oc2ccccc2c(O)c1-c1csc(Nc2cccc3ccccc23)n1	4.3 U/L
9. COC(=O)/C(C(C)=O)=C(/C)c1c(O)c2ccccc2oc1=O	2.8 U/L
10. CC(=O)CC(c1ccccc1)c1c(O)c2ccccc2oc1=O (stereo not given) [WARFARIN]	3.4 U/L

---

Property: Activity; scope: individual compounds
# Tested on: Rattus norvegicus
# assay_comment: Hepatotoxicity in Wistar albino rat assessed as change in serum iron level at 0.5 mg/kg, ip measured after 24 hrs
# Type: toxicity, organism-based
# Parameters: dose 0.5 mg/kg, route intraperitoneal
# test_parameters: in vivo
outcome_measure: Activity

1) O=c1oc2ccccc2c(O)c1-c1csc(Nc2cccc3ccccc23)n1	24.6 µmol/L
2) O=c1oc2ccccc2c(O)c1-c1csc(Nc2cccc([N+](=O)[O-])c2)n1	29.7 µmol/L
3) O=c1oc2ccccc2c(O)c1-c1csc(Nc2ccc(S(=O)(=O)O)cc2)n1	19.3 µmol/L
4) CC(=O)C(C(C)=O)=C(C)c1c(O)c2ccccc2oc1=O	32.4 µmol/L
5) COC(=O)/C(C(=O)O)=C(\C)c1c(O)c2ccccc2oc1=O	19.4 µmol/L
6) CC(=O)CC(c1ccccc1)c1c(O)c2ccccc2oc1=O (stereo unspecified)	22.3 µmol/L
7) O=c1oc2ccccc2c(O)c1-c1csc(Nc2ccc([N+](=O)[O-])cc2)n1	14.8 µmol/L
8) COC(=O)/C=C(/C)c1c(O)c2ccccc2oc1=O	54.2 µmol/L
9) O=C(O)CCCCNc1nc(-c2c(O)c3ccccc3oc2=O)cs1	27.4 µmol/L
10) Cc1ccccc1Nc1nc(-c2c(O)c3ccccc3oc2=O)cs1	29.2 µmol/L
11) CCOC(=O)C(C(=O)OCC)=C(C)c1c(O)c2ccccc2oc1=O	28.4 µmol/L

---

Property: Activity; scope: individual molecules
# Test system: Rattus norvegicus
# assay_comment: Hepatotoxicity in Wistar albino rat assessed as change in serum bilirubin level at 0.5 mg/kg, ip measured after 24 hrs
# Format: toxicity, organism-based
# Design: dose 0.5 mg/kg, route intraperitoneal
# test_parameters: in vivo
outcome_measure: Activity (µmol/L)

1) O=C(O)CCCCNc1nc(-c2c(O)c3ccccc3oc2=O)cs1	1.2
2) CCOC(=O)C(C(=O)OCC)=C(C)c1c(O)c2ccccc2oc1=O	2
3) CC(=O)c1c(O)c2ccccc2oc1=O	1.7
4) O=c1oc2ccccc2c(O)c1-c1csc(Nc2cccc3ccccc23)n1	2
5) COC(=O)/C(C(C)=O)=C(/C)c1c(O)c2ccccc2oc1=O	1.7
6) COC(=O)/C(C(=O)O)=C(\C)c1c(O)c2ccccc2oc1=O	1.8

---

Property: Activity; scope: individual molecules
# System: Rattus norvegicus
# assay_comment: Hepatotoxicity in Wistar albino rat assessed as change in serum AST level at 0.5 mg/kg, ip measured after 24 hrs
# Format: toxicity, organism-based
# Parameters: dose 0.5 mg/kg, route intraperitoneal
# test_parameters: in vivo
outcome_measure: Activity (U/L)

1) CC(=O)C(C(C)=O)=C(C)c1c(O)c2ccccc2oc1=O	201.4
2) CC(=O)CC(c1ccccc1)c1c(O)c2ccccc2oc1=O (stereo unspecified) [WARFARIN]	277.3
3) CCN(CC)c1nc(-c2c(O)c3ccccc3oc2=O)cs1	254.8
4) O=c1oc2ccccc2c(O)c1-c1csc(Nc2ccc(S(=O)(=O)O)cc2)n1	269.7
5) Cc1cccc(Nc2nc(-c3c(O)c4ccccc4oc3=O)cs2)c1	284.6
6) Cc1ccccc1Nc1nc(-c2c(O)c3ccccc3oc2=O)cs1	263.4
7) COC(=O)/C(C(=O)O)=C(\C)c1c(O)c2ccccc2oc1=O	218.4
8) COC(=O)/C=C(/C)c1c(O)c2ccccc2oc1=O	154.3
9) COC(=O)/C(C(C)=O)=C(/C)c1c(O)c2ccccc2oc1=O	236.9
10) O=c1oc2ccccc2c(O)c1-c1csc(Nc2ccc([N+](=O)[O-])cc2)n1	264.4
11) CCOC(=O)C(C(=O)OCC)=C(C)c1c(O)c2ccccc2oc1=O	238.3
